Provenance of the data: paper PMC11602988

target desc: OCT1 Phe244Ala variant (Homo sapiens, UniProt O15245, F244A)
test protocol: Uptake screening (transport ratio over empty vector), HEK293 cells overexpressing OCT1 Phe244Ala variant;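 further: stably transfected HEK293 cells, intracellular substrate quantified by HPLC-tandem mass spectrometry in cell lysates, uptake in HBSS+ buffer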
Type: cell-based
Design: expressed in transfected cells
setup conditions: uptake ratio over empty vector, HEK293 cells overexpressing OCT1 Phe244Ala
// values below are reported Mean_transport_ratio_Phe244Ala
readout: Mean_transport_ratio_Phe244Ala

                                   compound                               target_desc  readout_number
0  CC(C)(C)NCC(O)c1ccc(O)c(CO)c1 (stereo not shown) [Salbutamol]  OCT1 Phe244Ala variant (Homo sapiens, UniProt O15245, F244A)          12.079
1  CC(NCCc1ccc(O)cc1)C(O)c1ccc(O)cc1 (stereo not shown) [Ritodrine]  OCT1 Phe244Ala variant (Homo sapiens, UniProt O15245, F244A)           12.33
2  CCOc1ccccc1OCCN[C@H](C)Cc1ccc(OC)c(S(N)(=O)=O)c1 [Tamsulosin]  OCT1 Phe244Ala variant (Homo sapiens, UniProt O15245, F244A)           1.803
3               NCCc1cccc(O)c1 [m-Tyramine]  OCT1 Phe244Ala variant (Homo sapiens, UniProt O15245, F244A)           1.687
4  CC(C)N(CCC(C(N)=O)(c1ccccc1)c1ccccn1)C(C)C (stereo not shown) [Disopyramide]  OCT1 Phe244Ala variant (Homo sapiens, UniProt O15245, F244A)           1.093
5  CCNCC(O)c1cccc(O)c1 (stereo not shown) [Etilefrine]  OCT1 Phe244Ala variant (Homo sapiens, UniProt O15245, F244A)           3.319
6  COc1cc2c(cc1OC)-c1cc3ccc(OC)c(OC)c3c[n+]1CC2 [Palmatin]  OCT1 Phe244Ala variant (Homo sapiens, UniProt O15245, F244A)           4.951
7  CN(C)CCc1c[nH]c2ccc(CS(=O)(=O)N3CCCC3)cc12 [Almotriptan]  OCT1 Phe244Ala variant (Homo sapiens, UniProt O15245, F244A)           4.279
8  O=C(OC1C[N+]2(CCCOc3ccccc3)CCC1CC2)C(O)(c1cccs1)c1cccs1 [(S)-Aclidinium]  OCT1 Phe244Ala variant (Homo sapiens, UniProt O15245, F244A)           8.181
9  CN(C)c1ccc(/C=C/c2cc[n+](C)cc2)cc1 [ASP^+]  OCT1 Phe244Ala variant (Homo sapiens, UniProt O15245, F244A)           8.237

----------
target desc: OCT1 WT (Homo sapiens, UniProt O15245)
Sequence (O15245 1-554): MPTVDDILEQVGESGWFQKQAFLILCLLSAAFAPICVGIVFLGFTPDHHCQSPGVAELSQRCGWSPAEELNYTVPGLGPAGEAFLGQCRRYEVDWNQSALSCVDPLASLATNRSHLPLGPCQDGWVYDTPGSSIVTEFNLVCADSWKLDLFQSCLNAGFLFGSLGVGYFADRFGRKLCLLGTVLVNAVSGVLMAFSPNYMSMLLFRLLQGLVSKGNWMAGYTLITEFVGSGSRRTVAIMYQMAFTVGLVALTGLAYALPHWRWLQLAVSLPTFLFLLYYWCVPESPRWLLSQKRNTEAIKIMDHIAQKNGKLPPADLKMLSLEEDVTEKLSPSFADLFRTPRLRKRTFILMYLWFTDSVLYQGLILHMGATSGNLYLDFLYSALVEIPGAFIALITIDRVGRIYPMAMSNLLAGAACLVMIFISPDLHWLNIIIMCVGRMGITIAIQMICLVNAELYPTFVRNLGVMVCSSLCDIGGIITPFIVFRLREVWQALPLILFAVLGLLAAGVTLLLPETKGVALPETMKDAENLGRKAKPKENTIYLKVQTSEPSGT
// values below are reported IC50
readout: IC50 (µM)

                                   compound  readout_number
0                        CN(C)CCc1ccc(O)cc1               3
1  CC(Cc1ccc(O)cc1)NCC(O)c1cc(O)cc(O)c1 (stereo not shown)           0.541
2                   Clc1cccc(Cl)c1N=C1NCCN1            1.62
3  CN1CCN(CC(=O)N2c3ccccc3C(=O)Nc3cccnc32)CC1 [Pirenzepine]             104
